Assay: Thermal stability test (residual rate of compound (I) by HPLC)
Type: physicochemical
Settings: Condition (1): closed state, 60° C.; 1 month
Provide the reported Residual rate of Compound (I) (%) of each item.

Asked: Output Residual rate of Compound (I) (%) of `CC1=C(C(=O)OC(C)C)[C@@H](c2cccc([N+](=O)[O-])c2)C(C(=O)OC2CN(C(c3ccccc3)c3ccccc3)C2)=C(N)N1.Cl.Cl.O.O`
Given back: 95.3%

Asked: Output Residual rate of Compound (I) (%) of `Br.Br.CC1=C(C(=O)OC(C)C)[C@@H](c2cccc([N+](=O)[O-])c2)C(C(=O)OC2CN(C(c3ccccc3)c3ccccc3)C2)=C(N)N1.O.O`
Given back: 94.2%

Asked: Output Residual rate of Compound (I) (%) of CC1=C(C(=O)OC(C)C)[C@@H](c2cccc([N+](=O)[O-])c2)C(C(=O)OC2CN(C(c3ccccc3)c3ccccc3)C2)=C(N)N1.O=S(=O)(O)O [Comparative Example 2, reference compound]
Given back: 24.3%

Asked: Output Residual rate of Compound (I) (%) of CC1=C(C(=O)OC(C)C)[C@@H](c2cccc([N+](=O)[O-])c2)C(C(=O)OC2CN(C(c3ccccc3)c3ccccc3)C2)=C(N)N1.CS(=O)(=O)O.CS(=O)(=O)O [Comparative Example 3, reference compound]
Given back: 90.0%

----------
Assay: Thermal stability test (residual rate of compound (I) by HPLC)
Format: physicochemical
Details: Condition (2): non-closed state, 40° C., humidity 75%; time 0
Provide the reported Residual rate of Compound (I) (%) of each item.
Record the result as a number with its unit.

Asked: Output Residual rate of Compound (I) (%) of CC1=C(C(=O)OC(C)C)[C@@H](c2cccc([N+](=O)[O-])c2)C(C(=O)OC2CN(C(c3ccccc3)c3ccccc3)C2)=C(N)N1.CS(=O)(=O)O.CS(=O)(=O)O [Comparative Example 3, reference compound]
Given back: 99.3%

Asked: Output Residual rate of Compound (I) (%) of CC1=C(C(=O)OC(C)C)[C@@H](c2cccc([N+](=O)[O-])c2)C(C(=O)OC2CN(C(c3ccccc3)c3ccccc3)C2)=C(N)N1.Cl.Cl.O.O [Example 1]
Given back: 99.4%

Asked: Output Residual rate of Compound (I) (%) of Br.Br.CC1=C(C(=O)OC(C)C)[C@@H](c2cccc([N+](=O)[O-])c2)C(C(=O)OC2CN(C(c3ccccc3)c3ccccc3)C2)=C(N)N1.O.O [Example 2]
Given back: 99.8%

Asked: Output Residual rate of Compound (I) (%) of CC1=C(C(=O)OC(C)C)[C@@H](c2cccc([N+](=O)[O-])c2)C(C(=O)OC2CN(C(c3ccccc3)c3ccccc3)C2)=C(N)N1.O=S(=O)(O)O [Comparative Example 2, reference compound]
Given back: 93.1%

----------
Assay: Thermal stability test (residual rate of compound (I) by HPLC)
Format: physicochemical
Conditions: Condition (1): closed state, 60° C.; time 0
Provide the reported Residual rate of Compound (I) (%) of each item.
Output spec: scalar in %, unitless text.

Asked: Output Residual rate of Compound (I) (%) of CC1=C(C(=O)OC(C)C)[C@@H](c2cccc([N+](=O)[O-])c2)C(C(=O)OC2CN(C(c3ccccc3)c3ccccc3)C2)=C(N)N1.O=S(=O)(O)O [Comparative Example 2, reference compound]
Given back: 93.1

Asked: Output Residual rate of Compound (I) (%) of `Br.Br.CC1=C(C(=O)OC(C)C)[C@@H](c2cccc([N+](=O)[O-])c2)C(C(=O)OC2CN(C(c3ccccc3)c3ccccc3)C2)=C(N)N1.O.O`
Given back: 99.8

Asked: Output Residual rate of Compound (I) (%) of `CC1=C(C(=O)OC(C)C)[C@@H](c2cccc([N+](=O)[O-])c2)C(C(=O)OC2CN(C(c3ccccc3)c3ccccc3)C2)=C(N)N1.Cl.Cl.O.O`
Given back: 99.4

Asked: Output Residual rate of Compound (I) (%) of CC1=C(C(=O)OC(C)C)[C@@H](c2cccc([N+](=O)[O-])c2)C(C(=O)OC2CN(C(c3ccccc3)c3ccccc3)C2)=C(N)N1.CS(=O)(=O)O.CS(=O)(=O)O [Comparative Example 3, reference compound]
Given back: 99.3
